System: Poliovirus 1
Assay: microbe, parasite or virus in culture
Type: functional
Settings: Enterovirus C; read-out: ED50 (the source's name)
PARAMETER: EC50 (µg/mL)
# value in µg/mL; strip the unit string

Can you share its EC50? I mean this compound: "CN(C)S(=O)(=O)Nc1cccc(/C(=N/O)c2cccc(CO)c2)c1" 0.5

Now the same for "CN(C)S(=O)(=O)Nc1ccc(C(=O)Nc2ccc(Br)cc2)cc1" 0.3

Lookup "O=C(Nc1ccccc1)c1cccc(NS(=O)(=O)c2ccccc2)c1" 17

And "CSc1ccc(/C(=N\O)c2cccc(NS(=O)(=O)N(C)C)c2)cc1" ? 0.32

Now consider "CC(C)S(=O)(=O)Nc1cccc(C(=O)Nc2cccc(O)c2)c1" . 25

Queued: "CC(C)S(=O)(=O)Nc1ccc(C(=O)Nc2ccc(C(F)(F)F)cc2)cc1" 0.25

Try this compound too: "CN(C)S(=O)(=O)Nc1cccc(C(=O)Nc2cccc(Cl)c2)c1" 1.5

Can you check "COC(=O)c1cccc(NC(=O)c2ccc(NS(=O)(=O)N(C)C)cc2)c1" next? 1.2

Also "COc1ccc(NC(=O)c2cccc(NS(=O)(=O)N(C)C)c2)cc1" , if possible. 4

What do you have for "CN(C)S(=O)(=O)Nc1cccc(C(=O)Nc2ccccn2)c1" ? 44

Also "COCc1ccc(/C(=N\O)c2cccc(NS(=O)(=O)C(C)C)c2)cc1" , if possible. 0.22

Now give it for "CN(C)S(=O)(=O)Nc1ccc(C(=O)Nc2cccc(Cl)c2)cc1" too. 1.6

Input "CCCc1ccc(NC(=O)c2ccc(NS(=O)(=O)N(C)C)cc2)cc1" 0.16

Same for "O=C(Nc1ccccc1)c1cccc(NS(=O)(=O)N2CCCC2)c1" 6.4

And the next one, "COc1ccc(/C(=N\O)c2cccc(NS(=O)(=O)N(C)C)c2)cc1" ? 0.26

Ok, now "CCCCc1ccc(NC(=O)c2cccc(NS(=O)(=O)C(C)C)c2)cc1" 0.42

Then this compound: "CN(C)S(=O)(=O)Nc1cccc(/C(=N/O)c2cccc(N)c2)c1" 0.7

Also, "CN(C)S(=O)(=O)Nc1cccc(/C(=N/O)c2ccc3c(c2)OCO3)c1" please. 3.4

Same again, this time with "COc1ccc(/C(=N\O)c2cccc(NS(=O)(=O)C(C)C)c2)cc1" 0.36

Continue with "CCCCCCc1ccc(NC(=O)c2ccc(NS(=O)(=O)N(C)C)cc2)cc1" 0.16

Consider next the compound "CN(C)S(=O)(=O)Nc1ccc(C(=O)Nc2ccccc2)cc1" in the same way. 3
